Attribution: PubChem BioAssay (NCI)

# Assay remarks: NCI Yeast Anticancer Drug Screen. Data for the bub3 strain (AID 167)
# Conditions used: S. cerevisiae bub3 mutant strain, at 50.0 µM, stronger effect = higher value
The panel holds about 79,000 compounds, 15% with a hit somewhere; the sample as a whole holds those more often.
# growth inhibition per record follows
Give the value, in units of %, as a plain number.

Examples with their reported growth inhibition follow.
molecule=N=c1nc2n(cc1F)[C@@H]1O[C@H](CO)[C@@H](O)[C@@H]1O2 recorded_measurement=12.6
molecule="CCc1ccc2c(c1)C(C)(CC)CCC2C (stereo unspecified)" recorded_measurement=-8.95
molecule=NNc1ncnc2cccc(Cl)c12 recorded_measurement=1.8
molecule=CCNc1nc2c(=O)n(C)c(=O)n(C)c2s1 recorded_measurement=-10.6
molecule=Nc1nnc2nc(CC(=O)c3ccc(F)cc3)c(CC(=O)c3ccc(F)cc3)nn12 recorded_measurement=1.2

Now for a further molecule.
Reported growth inhibition for `O=c1cc(-c2ccccc2)nc(/C=C(\O)c2ccncc2)n1-c1ccccc1` : what is it?
15.5

====

# Assay remarks: NCI Yeast Anticancer Drug Screen. Data for the sgs1 mgt1 strain (AID 161);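 also: 0% = growth of cultures given vehicle only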
# Conditions used: S. cerevisiae sgs1 mgt1 strain, at 50.0 µM, stronger effect = higher value
This is part of a sample that, as a whole, favours compounds with a hit. Of some 79,000 tested, about 15% had one in any assay.
Parameter threshold = 10%. Response is MET when growth inhibition meets or exceeds it, else NOT MET.

Worked set:
compound=C=C1CN=C(Nc2ccc(Cl)cc2)S1 class="NOT MET"
compound="CCC(CO)Nc1nc2c(Cl)cc(Cl)cc2c2ccccc12 (configuration not stated)" class=MET
compound=O=C(OCc1ccccc1)c1ccccc1 class=MET

Textbook exercise: given the entry C=CCCC(C)N(C(=O)OC(C)(C)C)S(=O)(=O)c1ccc(C)cc1 (configuration not stated) , state whether its growth inhibition is greater than or equal to 10%.
NOT MET

Could you tell me if the measured growth inhibition of `CN(C)c1ccc(Cc2ccc(N(C)C)cc2[N+](=O)[O-])c([N+](=O)[O-])c1` reaches 10% or more?
MET

Threshold query (growth inhibition >= 10%) on `CCCCCC(C(C)=O)C(C)=O`
NOT MET

Could you tell me if the measured growth inhibition of `COC(=O)/C=C/c1ccc(OC(C)=O)c(OC)c1` reaches 10% or more?
NOT MET

Has `CC(=O)COc1ccccc1` a recorded growth inhibition greater than or equal to 10%?
NOT MET

Check the entry `c1ccc2cc(Nc3ccc(Nc4ccc5ccccc5c4)cc3)ccc2c1` : does growth inhibition equal or exceed 10%?
MET

Please tell me: is the compound CCCCCCCCCCCCCCCCCCCCCCCCC(O)C(=O)O (configuration not stated) (tested in a mixture with another compound) at or over 10% in terms of growth inhibition?
NOT MET

Test whether the compound OCC1OC(n2ncc3c(Nc4ccccc4)ncnc32)C(O)C1O (configuration not stated) records growth inhibition of 10% or higher.
NOT MET

Does the compound FC1(F)C(F)(F)C(F)(F)C2(F)C(F)(F)C(F)(F)C(F)(F)C(F)(F)C2(F)C1(F)F (configuration not stated) have recorded growth inhibition that is 10% or more?
NOT MET

====

# Assay remarks: NCI Yeast Anticancer Drug Screen. Data for the bub3 strain (AID 167)
# Conditions used: S. cerevisiae bub3 mutant strain, at 50.0 µM, stronger effect = higher value
About 79,000 compounds went through this panel and 15% of them were active in at least one assay; those are over-represented in the sample as a whole.
Readout label: growth inhibition (%)
Give just the numeric value; % need not be written.

Consider the molecule shown here: CCCCCCCCCCCCCCCCOc1ccc(C2=NCC(C)S2)c(C)c1 (stereo not given) What is its recorded growth inhibition?
-1.6

====

# Assay remarks: NCI Yeast Anticancer Drug Screen. Data for the mlh1 rad18 strain (AID 175)
# Conditions used: S. cerevisiae mlh1 rad18 strain growth inhibition; at 50.0 µM; stronger effect = higher value
This is part of a sample that, as a whole, favours compounds with a hit. Of some 79,000 tested, about 15% had one in any assay.
Entry flag: Yes if growth inhibition reaches 10%; No if it does not.

compound=Cc1c(C)c(C)c(CN2CCC(C)CC2)c(C)c1C class=No
compound=OC(c1ccccc1)(c1ccccc1)c1ccccc1CNc1ccccc1 class=Yes
compound="Clc1ccc2c(c1)N(C1CCCN(Cc3ccccc3)C1)c1ccccc1S2 (stereo not drawn)" class=Yes
compound=COC1=c2\cccc\c2=c2/cccc/c2=c2\cccc\c2=N\1 class=Yes
compound=O=C(O)COc1ccccc1F class=No
compound=CCc1cn(O)c(C)cc1=N class=Yes
compound=NCC(=O)NC1CCCCC1 class=No
compound=Cc1cccc(C(C)(C)C)c1NC(=O)C(=O)Cc1nc2ccccc2s1 class=Yes

Say whether `COc1ccc(/C=N/Nc2nc3ccccc3c(=O)n2-c2ccccc2)cc1` shows growth inhibition of 10% or more.
No

Is the recorded value of growth inhibition equal to or greater than 10% for this compound? `CCN(CC)/[N+]([O-])=N/O`
Yes

====

# Assay remarks: NCI Yeast Anticancer Drug Screen. Data for the cln2 rad14 strain (AID 165);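 also: 0% = growth equal to vehicle treated cultures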
# Conditions used: S. cerevisiae cln2 rad14 strain, at 50.0 µM, stronger effect = higher value
Compounds without any hit were thinned out: in the full panel of roughly 79,000, 15% have a hit. Where a SMILES comes first, the peptide text is derived from it. Bridges are numbered along the chain shown (N, C = ends). [ ]: non-standard residue; d: D form. The star is where a group is joined. ξ: configuration not given here. PhAc = O=C(Cc1ccccc1)*; ξP = O=C(O)C1CCCN1
Readout label: growth inhibition (%)
Express the result in % but write the number alone.

Guide cases for growth inhibition, answers given:
compound="COC(=O)/C(=N\\O)C(C(=O)C=C(C)C)C(=O)C(=O)Nc1ccccc1C (stereo unspecified)" readout_label="growth inhibition" recorded_measurement=7.4
compound=Cc1cccc(-n2cccc2)c1 readout_label="growth inhibition" recorded_measurement=-10.7
compound="C1CCC(CCC2CCCC[N-]2)[N-]C1.[I][Co][I] (stereo unspecified)" readout_label="growth inhibition" recorded_measurement=-3
compound=CN(C)c1ccc(Cc2ccc(N(C)C)c3cccnc23)c2ncccc12 readout_label="growth inhibition" recorded_measurement=-13.4
compound=CN(C)C(=S)/N=c1\ssc(=S)n1Cc1ccccc1 readout_label="growth inhibition" recorded_measurement=16.4

Suppose we examine the compound O=C(Cc1ccccc1)N[C@@H]1COC(=O)C2CCCN2C(=O)[C@@H]2CCCN2C1=O (stereo partly specified) (PhAc-[dS]-Pro-[ξP]; ester 1-C) ; what growth inhibition value has been reported?
27.4

Reported growth inhibition, compound `C=CCOC(=O)CC(=C)C(=O)OCC=C` : ____
-4.7

====

# Assay remarks: NCI Yeast Anticancer Drug Screen. Data for the sgs1 mgt1 strain (AID 161);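 also: 0% = growth of cultures given vehicle only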
# Conditions used: S. cerevisiae sgs1 mgt1 strain, at 50.0 µM, stronger effect = higher value
The panel holds about 79,000 compounds, 15% with a hit somewhere; the sample as a whole holds those more often.
Readout label: growth inhibition (%)
Could you give me the number in %? Just the number is fine.

compound="COc1ccc(COC(=O)NNC(=O)C2CSC(c3ccccc3)N2C(C)=O)cc1 (stereo not drawn)" recorded_measurement=-15.8

As a next step, examine the compound that follows.
Please report the recorded growth inhibition for c1ccc2c(c1)C1CCCCCC21N1CCOCC1 (stereo not drawn) .
-14.4

====

# Assay remarks: NCI Yeast Anticancer Drug Screen. Data for the sgs1 mgt1 strain (AID 161);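 also: 0% = growth of cultures given vehicle only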
# Conditions used: S. cerevisiae sgs1 mgt1 strain, at 50.0 µM, stronger effect = higher value
# Protocol: Growth inhibition of yeast strains with defined genetic alterations is measured as a screen for potential anti-cancer activity. Selected strains with alterations in DNA damage repair or cell cycle control were exposed to compounds and growth inhibition was measured relative to vehicle treated controls. The strain used in this assay is sgs1 mgt1
Compounds without any hit were thinned out: in the full panel of roughly 79,000, 15% have a hit.
Readout label: growth inhibition (%)
Please respond with the number in % and leave the unit unwritten.

Looking for the measured growth inhibition of `Nc1nnc2nc(CC(=O)c3ccc(F)cc3)c(CC(=O)c3ccc(F)cc3)nn12` , can you help?
6.6

====

# Assay remarks: NCI Yeast Anticancer Drug Screen. Data for the rad50 strain (AID 155);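 also: 0% = growth of vehicle-only cultures of the same strain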
# Conditions used: S. cerevisiae rad50 strain growth inhibition; at 50.0 µM; stronger effect = higher value
This is part of a sample that, as a whole, favours compounds with a hit. Of some 79,000 tested, about 15% had one in any assay.
Readout label: growth inhibition (%)
# output: bare number, implied unit %

Example compounds with recorded growth inhibition:
compound="CN(C)CCC(O)c1ccccc1 (stereo not given)" readout_label="growth inhibition" recorded_measurement=7.2
compound="O=[N+]([O-])c1cccc(OCC2CO2)c1 (stereo not given)" readout_label="growth inhibition" recorded_measurement=9
compound="CC(=O)OC12CC3CCC4C(CCC5(C)C(C(C)CCCC(C)C)CCC45)C3(C)CC1O2 (stereo not given)" readout_label="growth inhibition" recorded_measurement=71
compound="O=[N+]([O-])c1ccc(CSc2ncnc3c2ncn3C2OC(CO)C(O)C2O)cc1 (stereo not given)" readout_label="growth inhibition" recorded_measurement=10.7
compound=CSC(=S)Nc1cc(C)cc(C)n1 readout_label="growth inhibition" recorded_measurement=29.8

Consider the compound shown here: `COc1cc2c(-c3cc(OC)c(OC)c(OC)c3)cc(C)[n+](C)c2cc1OC` What is its recorded growth inhibition?
6.25

May I ask what growth inhibition has been recorded for CC(C)SC1SCC2C(=O)N(C)C3(CC3C)C(=O)OCC(NC(=O)c3nc4ccccc4cc3O)C(=O)NC(C)C(=O)N(C)C1C(=O)N(C)C1(CC1C)C(=O)OCC(NC(=O)c1nc3ccccc3cc1O)C(=O)NC(C)C(=O)N2C (stereo not given) ?
70.4
